target.desc: human orexin-2 receptor (Homo sapiens (Human), UniProt O43614)
Sequence (O43614 whole entry): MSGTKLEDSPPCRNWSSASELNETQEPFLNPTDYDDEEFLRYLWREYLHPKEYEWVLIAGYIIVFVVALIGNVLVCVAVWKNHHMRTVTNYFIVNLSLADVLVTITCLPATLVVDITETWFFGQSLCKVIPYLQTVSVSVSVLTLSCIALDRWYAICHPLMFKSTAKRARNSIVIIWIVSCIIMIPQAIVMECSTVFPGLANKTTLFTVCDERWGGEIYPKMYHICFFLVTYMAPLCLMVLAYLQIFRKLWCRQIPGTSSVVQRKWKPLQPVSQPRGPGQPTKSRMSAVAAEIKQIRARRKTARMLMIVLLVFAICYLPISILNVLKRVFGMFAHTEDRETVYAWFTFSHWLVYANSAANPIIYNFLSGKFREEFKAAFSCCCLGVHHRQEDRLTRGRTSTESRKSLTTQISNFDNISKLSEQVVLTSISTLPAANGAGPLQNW
assay.name: FLIPR Ca2+ Flux Assay, orexin-2 receptor (hOX2R FLIPR)
test.parameters: CHO cells expressing the human orexin-2 receptor; agonist 70 pM Ala-6,12 human orexin-A
Bucketed by reported IC50, buckets being bottom (below 20 nM), middle (20 nM to below 60 nM), top (60 nM or more)

Field: example entries. Status: answers known.
| input.smiles | class |
| --- | --- |
| C[C@@H]1CC[C@@H](n2ncc([C@@H](O)C(F)(F)F)n2)CN1C(=O)c1ccccc1-n1nccn1 | bottom |
| Cc1nn([C@@H]2CC[C@@H](C)N(C(=O)c3ccccc3OC(F)F)C2)nc1C(C)(C)O | bottom |
| C[C@@H]1CC[C@@H](n2ncc(C(C)(C)O)n2)CN1C(=O)c1cccc(Oc2ccccc2)c1 | top |
| CCCc1ccccc1C(=O)N1C[C@H](n2cc(C(C)(C)O)cn2)CC[C@H]1C | middle |
| CCOc1ccccc1C(=O)N1C[C@H](n2nc(C)c(C(C)(C)O)n2)CC[C@H]1C | bottom |
| Cc1nn([C@@H]2CC[C@@H](C)N(C(=O)c3ccccc3OC(F)(F)F)C2)nc1C(C)(C)O | bottom |
| CCOc1ncccc1C(=O)N1C[C@H](n2cc(C(C)(C)O)cn2)CC[C@H]1C | top |
| C[C@@H]1CC[C@@H](n2cc(C(C)(C)O)cn2)CN1C(=O)c1ccccc1OCC(F)F | top |

Class label required: C[C@@H]1CC[C@@H](n2ncc(C(C)(C)O)n2)CN1C(=O)c1cccnc1C1CC1
top

Class label required: C[C@@H]1CC[C@@H](n2ncc(C(C)(C)O)n2)CN1C(=O)c1ccccc1CC(F)(F)F
middle

Class label required: Cc1nn([C@@H]2CC[C@@H](C)N(C(=O)c3cccnc3-c3ccccc3)C2)nc1C(C)(C)O
bottom

Class label required: C[C@@H]1CC[C@@H](n2cc(C(C)(C)O)cn2)CN1C(=O)c1ccccc1CC(F)F
middle

Class label required: C[C@@H]1CC[C@@H](n2cc(C(C)(C)O)cn2)CN1C(=O)c1ccccc1SC(F)(F)F
bottom

Class label required: C[C@@H]1CC[C@@H](n2ncc(C(C)(C)O)n2)CN1C(=O)c1ccccc1C1CC1
bottom

Class label required: Cc1noc(-c2ccccc2C(=O)N2C[C@H](n3ncc(C(C)(C)O)n3)CC[C@H]2C)n1
top

Class label required: C[C@@H]1CC[C@@H](n2ncc(C(C)(C)O)n2)CN1C(=O)c1ccccc1-n1ncnn1
middle

Class label required: COCCc1ccccc1C(=O)N1C[C@H](n2ncc(C(C)(C)O)n2)CC[C@H]1C
top

Class label required: C[C@@H]1CC[C@@H](n2ncc(C(C)(C)O)n2)CN1C(=O)c1ccccc1OCC(F)(F)F
middle

Class label required: Cc1nn([C@@H]2CC[C@@H](C)N(C(=O)c3cccnc3OC(C)C)C2)nc1C(C)(C)O
bottom

Class label required: C[C@@H]1CC[C@@H](n2cc(C(C)(C)O)cn2)CN1C(=O)c1ccccc1OC(F)(F)F
middle

Class label required: C[C@@H]1CC[C@@H](n2cc(C(C)(C)O)cn2)CN1C(=O)c1ccc(F)cc1-n1nccn1
bottom

Class label required: C[C@@H]1CC[C@@H](n2cc(C(C)(C)O)cn2)CN1C(=O)c1ccccc1C1CCC1
middle

###

target.desc: UniProt:O43613
assay.name: FLIPR Ca2+ Flux Assay, orexin-1 receptor (hOXIR FLIPR)
test.parameters: CHO cells expressing the orexin-1 receptor (method text: rat; table head: hOXIR); agonist 70 pM Ala-6,12 human orexin-A
pIC50: −log10 of the molar value.
Please go through the items and note down their pIC50.

| input.smiles | target.desc | result |
| --- | --- | --- |
| Cc1cccc(-n2nccn2)c1C(=O)N1C[C@H](n2ncc(C(C)(C)O)n2)CC[C@H]1C | UniProt:O43613 | 5.74 |
| C[C@@H]1CC[C@@H](n2ncc([C@@H](O)C(F)(F)F)n2)CN1C(=O)c1ccccc1-n1nccn1 | UniProt:O43613 | 6.30 |
| Cc1nn([C@@H]2CC[C@@H](C)N(C(=O)c3ccccc3OC(F)(F)F)C2)nc1C(C)(C)O | UniProt:O43613 | 5.94 |
| C[C@@H]1CC[C@@H](n2cc(C(C)(C)O)cn2)CN1C(=O)c1cccnc1OCC(F)F | UniProt:O43613 | < 5.00 |
| Cc1nn([C@@H]2CC[C@@H](C)N(C(=O)c3ccccc3C3CC3)C2)nc1C(C)(C)O | UniProt:O43613 | 6.12 |
| C[C@@H]1CC[C@@H](n2ncc(C(C)(C)O)n2)CN1C(=O)c1ccccc1C1CC1 | UniProt:O43613 | 5.61 |
| CCCc1ncccc1C(=O)N1C[C@H](n2ncc(C(C)(C)O)n2)CC[C@H]1C | UniProt:O43613 | < 5.00 |
| COc1cccc(-n2nccn2)c1C(=O)N1C[C@H](n2ncc(C(C)(C)O)n2)CC[C@H]1C | UniProt:O43613 | < 5.00 |
| Cc1nn([C@@H]2CC[C@@H](C)N(C(=O)c3cccnc3OC(C)C)C2)nc1C(C)(C)O | UniProt:O43613 | 5.47 |
| C[C@@H]1CC[C@@H](n2ncc(C(C)(C)O)n2)CN1C(=O)c1cccnc1OC(F)F | UniProt:O43613 | < 5.00 |

Report pIC50 for every entry below.
1. C[C@@H]1CC[C@@H](n2cc(C(C)(C)O)cn2)CN1C(=O)c1nccnc1-n1cccn1
2. C[C@@H]1CC[C@@H](n2ncc(C(C)(C)O)n2)CN1C(=O)c1ncccc1-n1nccn1
3. COCCc1ccccc1C(=O)N1C[C@H](n2ncc(C(C)(C)O)n2)CC[C@H]1C
4. Cc1nc(-c2c(F)cccc2C(=O)N2C[C@H](n3ncc(C(C)(C)O)n3)CC[C@H]2C)no1
5. C[C@@H]1CC[C@@H](n2nnc(C(C)(C)O)n2)CN1C(=O)c1ccccc1-n1nccn1
6. C[C@@H]1CC[C@@H](n2cc(C(C)(C)O)cn2)CN1C(=O)c1ccccc1OCC(F)(F)F

< 5.00
< 5.00
< 5.00
< 5.00
< 5.00
< 5.00

###

target.desc: human orexin-2 receptor (Homo sapiens (Human), UniProt O43614)
assay.name: FLIPR Ca2+ Flux Assay, orexin-2 receptor (hOX2R FLIPR)
test.parameters: CHO cells expressing the human orexin-2 receptor; agonist 70 pM Ala-6,12 human orexin-A
observable: pIC50
Answers are plain numbers, as −log10 of the molar value.

Below, each entry is followed by its recorded pIC50 result.
| compound | target.desc | observable | numeric.value |
| --- | --- | --- | --- |
| COc1ccc(C(=O)N2C[C@H](n3ncc(C(C)(C)O)n3)CC[C@H]2C)c(-n2nccn2)c1 [Example 54] | human orexin-2 receptor (Homo sapiens (Human), UniProt O43614) | pIC50 | 7.27 |
| Cc1nn([C@@H]2CC[C@@H](C)N(C(=O)c3ccc(F)cc3-n3nccn3)C2)nc1C(C)(C)O [Example 72] | human orexin-2 receptor (Homo sapiens (Human), UniProt O43614) | pIC50 | 7.82 |
| CC(O)c1cnn([C@@H]2CC[C@@H](C)N(C(=O)c3cccnc3OCC(F)F)C2)n1 (stereo partly shown) [Example 61] | human orexin-2 receptor (Homo sapiens (Human), UniProt O43614) | pIC50 | 6.17 |

Would you kindly look at the next entry?
Query (compound): C[C@@H]1CC[C@@H](n2ncc(C(C)(C)O)n2)CN1C(=O)c1ccccc1C1(C#N)CC1 [Example 1] ; field requested: pIC50
7.86

###

Please go through the items and note down their IC50.
target.desc: UniProtKB O43613
assay.name: FLIPR Ca2+ Flux Assay, orexin-1 receptor (hOXIR FLIPR)
test.parameters: CHO cells expressing the orexin-1 receptor (method text: rat; table head: hOXIR); agonist 70 pM Ala-6,12 human orexin-A

Below, each entry is followed by its recorded IC50 result.
| input.smiles | target.desc | IC50 |
| --- | --- | --- |
| COc1ccc(C(=O)N2C[C@H](n3cc(C(C)(C)O)cn3)CC[C@H]2C)c(C2CC2)n1 | UniProtKB O43613 | > 10 µM |
| C[C@@H]1CC[C@@H](n2ncc(C(C)(C)O)n2)CN1C(=O)c1cccc2ccnn12 | UniProtKB O43613 | > 10 µM |
| C[C@@H]1CC[C@@H](n2cc(C(C)(C)O)cn2)CN1C(=O)c1cccnc1OCC(F)(F)F | UniProtKB O43613 | > 10 µM |

Would you kindly look at the next entry?
Query (compound): C[C@@H]1CC[C@@H](n2ncc(C(C)(C)O)n2)CN1C(=O)c1ccccc1OCC(F)(F)F ; field requested: IC50
> 10 µM
